# credit: PubChem BioAssay AID1159580

- method summary: chemical genetic growth profiling, strain panel (AID 1159580);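 note: tested at 20 µM; growth read once vehicle control cultures reached saturation at 30 °C; 1 = growth at the plate median or of vehicle wells; lower values mean less growth of the strain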
- conditions: S. cerevisiae deletion strains, growth OD, locus YKL009W, strain mrt4
Screen size: about 5,500 compounds; about 2,000 (36%) were called active. Inconclusive results (about 18%) are left out. Cut-off read from the data, not from the text of the source: active = normalized growth mostly below about 0.91 (no sharp cut-off); inconclusive = no clear call, values can overlap the other calls; inactive = mostly above about 0.92. The list shows a part of the results.
Possible outcomes: yes (1) for active, no (0) for inactive

compound | assigned class
CCC1(O)CC(OC2CC(N(C)C)C(OC3CC(O)C(OC4CCC(=O)C(C)O4)C(C)O3)C(C)O2)c2c(cc3c(c2O)C(=O)c2c(O)cccc2C3=O)C1C(=O)OC (stereo not drawn) | no (0)
C=C1CCC2[C@](C)(CO)[C@H](O)CC[C@@]2(C)[C@@H]1C/C=C1/C(=O)OC[C@H]1O (stereo partly drawn) | no (0)
C=C[C@@](C)(O)CCC1C(=C)C[C@H](OC(C)=O)C2C(C)(C)CCCC12C (stereo partly drawn) | no (0)
CC1(C)CCC[C@@]2(C)C1[C@@H](O)C[C@]1(C)C2CC[C@@H]2[C@@]3(C)CC[C@H](C(C)(C)O)[C@@H]3CC[C@@]21C (stereo partly drawn) | no (0)
O=C(O)CCCc1ccccc1 | no (0)
CCCCCCC(C)OC(=O)COc1cc(Cl)c(Cl)cc1Cl (stereo not drawn) | no (0)
CCN1CCCC(OC(=O)C(c2ccccc2)c2ccccc2)C1 (stereo not drawn) | no (0)
COc1ccc(OC)c(C(O)CNC(=O)CN)c1 (stereo not drawn) | no (0)
Oc1cc(O)c2c(c1)O[C@H](c1cc(O)c(O)c(O)c1)[C@H](O)C2 | no (0)
Oc1cc(O)c2c(c1)O[C@H](c1ccc(O)c(O)c1)[C@H](O)C2 | no (0)
O=C(O)CCCc1ccc(N(CCCl)CCCl)cc1 | no (0)
CN1CCC(OC(c2ccccc2)c2ccccc2)CC1 | no (0)
CC[C@H]1OC(=O)[C@H](C)[C@@H](O[C@H]2C[C@@](C)(OC)[C@@H](O)[C@H](C)O2)[C@H](C)[C@@H](O[C@@H]2O[C@H](C)C[C@H](N(C)C)[C@H]2O)[C@](C)(OC)C[C@@H](C)C(=O)[C@H](C)[C@@H](O)[C@]1(C)O | no (0)
COc1ccc(C(c2ccc(OC)cc2)C(Cl)(Cl)Cl)cc1 | no (0)
CC[C@@]1(O)C[C@H](O)c2c(cc3c(c2O)C(=O)c2c(O)ccc(O)c2C3=O)[C@H]1C(=O)OC | yes (1)
COc1ccc(-c2coc3cc(O)ccc3c2=O)c(OC)c1O | no (0)
CC[C@@]1(O)C[C@H](O[C@H]2C[C@H](N(C)C)[C@H](O)[C@H](C)O2)c2c(cc3c(c2O)C(=O)c2c(O)cccc2C3=O)[C@H]1C(=O)OC | no (0)
CC(=O)S[C@@H]1CC2=CC(=O)CC[C@]2(C)[C@H]2CC[C@@]3(C)[C@@H](CC[C@@]34CCC(=O)O4)C12 (stereo partly drawn) | no (0)
Oc1ccc2c(c1)O[C@H](c1ccc(O)c(O)c1)[C@@H](O)C2 | no (0)
COc1ccc([C@H]2Oc3c(I)c(OC)cc(OC)c3C[C@@H]2O)cc1OC | no (0)
CCC[C@H](N[C@@H](C)C(=O)N1[C@H](C(=O)O)C[C@@H]2CCCC[C@@H]21)C(=O)OCC | no (0)
CN(C)CCN(Cc1ccccc1)c1ccccn1 | no (0)
NS(=O)(=O)c1cc2c(cc1Cl)NC=NS2(=O)=O | no (0)
COc1cc(CNC(=O)CCCC/C=C/C(C)C)ccc1O | no (0)
C/C=C(\C)C(=O)O[C@H]1C[C@@H](OC(C)=O)[C@@]2(C(=O)OC)CO[C@@H]3C2[C@]12CO[C@](O)(C(=O)OC)[C@H]2[C@](C)(C12O[C@@]1(C)[C@H]1C[C@@H]2OC2OC=C[C@@]21O)[C@@H]3O (stereo partly drawn) | no (0)
O=C1CCC(N2C(=O)c3ccccc3C2=O)C(=O)N1 (stereo not drawn) | no (0)
CCN(CC)C(=O)N1CCN(C)CC1 | no (0)
CN1C2CCC1CC(OC(c1ccccc1)c1ccccc1)C2 (stereo not drawn) | no (0)
COc1ccc(-c2coc3cc(O)ccc3c2=O)c(OC)c1 | no (0)
COc1cc2nc(N(C)CCCNC(=O)C3CCCO3)nc(N)c2cc1OC (stereo not drawn) | no (0)
N[C@@H](Cc1ccc(N(CCCl)CCCl)cc1)C(=O)O | no (0)
Clc1ccc(C(c2ccc(Cl)cc2)C(Cl)(Cl)Cl)cc1 | no (0)
CC(=O)O[C@H]1C[C@@H](OC(C)=O)C(C)(C)C2CC(=O)[C@]3(C)C(CC[C@@]4(C)[C@H](C(=O)O)OC(=O)C5OC543)[C@]21C (stereo partly drawn) | no (0)
COc1cc([C@@H]2c3cc4c(cc3C(OC3O[C@@H]5COC(C)O[C@H]5[C@H](O)[C@H]3O)C3COC(=O)[C@@H]32)OCO4)cc(OC)c1O (stereo partly drawn) | no (0)
C=CCc1ccc(OC(=O)c2ccccc2)c(OC)c1 | no (0)
C=CCc1ccc(O)c(OC)c1 | no (0)
C=C[C@@](C)(O)CCC1C(=C)CCC2[C@@](C)(CO)CCC[C@]12C (stereo partly drawn) | yes (1)
O=c1c(-c2ccc(O)cc2)coc2cc(O)ccc12 | no (0)

====

Listed molecules paired with reported normalized growth
- method summary: chemical genetic growth profiling, strain panel (AID 1159580);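 note: tested at 20 µM; growth read once vehicle control cultures reached saturation at 30 °C; 1 = growth at the plate median or of vehicle wells; lower values mean less growth of the strain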
- conditions: S. cerevisiae deletion strains, growth OD, locus YDR195W, strain ref2
Screen size: about 5,500 compounds; about 2,000 (36%) were called active. Roughly 18% stayed inconclusive and do not appear here. This is one part of the list.
value type: normalized growth

molecule | reported value
Cn1c(=O)c2c(ncn2CC(O)CO)n(C)c1=O (stereo unspecified) | 0.951
C=CCc1ccc(OC)cc1 | 1
Cc1[nH]c2ccccc2c1CN(C)C | 1.03
CN(C)CCCC1(c2ccc(F)cc2)OCc2cc(C#N)ccc21 (stereo unspecified) | 0.946
O=C(c1ccc(OCCN2CCCCC2)cc1)c1c(-c2ccc(O)cc2)sc2cc(O)ccc12 | 1.01
CCC[C@H](N[C@@H](C)C(=O)N1[C@H](C(=O)O)C[C@@H]2CCCC[C@@H]21)C(=O)OCC | 1.04

====

- method summary: chemical genetic growth profiling, strain panel (AID 1159580);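 note: tested at 20 µM; growth read once vehicle control cultures reached saturation at 30 °C; 1 = growth at the plate median or of vehicle wells; lower values mean less growth of the strain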
- conditions: S. cerevisiae deletion strains, growth OD, locus YJR075W, strain HOC1, active compounds read low
In all, about 5,500 compounds went through this assay and about 2,000 (36%) were called active. About 18% were inconclusive and are not listed. The list shows a part of the results.
value type: normalized growth

molecule | value type | reported value
C#CCN(C)Cc1ccccc1 | normalized growth | 0.991
O=[N+]([O-])c1ccc(S(=O)(=O)N2CCCCC2)cc1 | normalized growth | 0.985
COc1ccc([C@H]2Oc3c(I)c(OC)cc(OC)c3C[C@@H]2O)cc1OC | normalized growth | 1.03
COc1ccc(-n2c(=S)[nH]c(=O)c3cccnc32)cc1 | normalized growth | 0.993
N[C@H]1CONC1=O | normalized growth | 1.02
S=c1nc2[nH]c3ccccc3c2n[nH]1 | normalized growth | 1
NCCCS(=O)(=O)O | normalized growth | 0.995
c1ccc(OCCOc2ccccn2)nc1 | normalized growth | 1
C/C(=C\C(=O)Nc1ccc(F)cc1)Nc1ccc(F)cc1 | normalized growth | 1
CCOC(=O)N=Nc1c(O)[nH]c2ccc(F)cc12 | normalized growth | 1.02
COc1ccc(C(=O)CC(=O)O)c2c1C=CC(C)(C)O2 | normalized growth | 1.02
COc1ccc(C(c2ccc(OC)cc2)C(Cl)(Cl)Cl)cc1 | normalized growth | 1.01
O=[N+]([O-])c1ccc(N2CCCCC2)nc1N1CCCCC1 | normalized growth | 0.914
CC[C@@H](C(=O)C(C)[C@@H](O)[C@H](C)CCc1ccc(C)c(O)c1C(=O)O)C1OC(CC)(C2CC[C@](O)(CC)[C@H](C)O2)C[C@@H]1C (stereo not given in full) | normalized growth | 1.01
O=C(O)c1cc2cc(F)ccc2[nH]1 | normalized growth | 1.01
O=[N+]([O-])c1cc(C(F)(F)F)c(N2CCCCC2)cc1N1CCCCC1 | normalized growth | 0.996
COc1ccc(C(CN(C)C)C2(O)CCCCC2)cc1 (stereo not given) | normalized growth | 1.02
CCCCCCCCCCC[C@@H](C[C@H]1OC(=O)[C@H]1CCCCCC)OC(=O)[C@@H](CC(C)C)NC=O | normalized growth | 1.06
COc1cc2nc(N(C)CCCNC(=O)C3CCCO3)nc(N)c2cc1OC (stereo not given) | normalized growth | 1.01
O=C(/C=C/c1ccc(O)c(O)c1)OCCc1ccccc1 | normalized growth | 0.858
CCCCCCC(C)OC(=O)COc1cc(Cl)c(Cl)cc1Cl (stereo not given) | normalized growth | 1.01
N=C(N)SCCc1cnc[nH]1 | normalized growth | 0.998
CC(C)NCC(O)COc1cccc2[nH]ccc12 (stereo not given) | normalized growth | 1.01
O=C(CSc1ccc(Cl)cc1)Nc1ccc(F)cc1 | normalized growth | 0.823
Cc1ccc(-c2csc(CC#N)n2)cc1C | normalized growth | 0.914
